compounds and their reported growth
System: K-562 leukemia
Experiment: NCI-60 one-dose screen, 48 h (100 = growth as untreated, 0 = no growth, -100 = all killed)
Settings: 10 µM unless noted
Compounds without any hit were thinned out: in the full panel of roughly 83,000, 20% have a hit. Activity calls are given as the source filed them. How the source made its calls: active means growth percent below 10; inactive means the rest.

Compound	Target under test	growth
COc1cc(C2CC(=O)Nc3n[nH]c(-c4ccccc4)c32)cc(OC)c1OC (centres undefined)	K-562 leukemia	24.6% (inactive)
CC(c1ccc(-n2cccn2)cc1)c1cnc(N2CCc3ccc(C(N)=O)cc3C2)s1 (centres undefined)	K-562 leukemia	30.4% (inactive)
NC(=O)CC1(O)C=C(Br)C(=O)C(Br)=C1	K-562 leukemia	-29.6% (active)
CCCCN(CCCC)CCCn1c(=O)c2sc3ncccc3c2n2nnc(-c3ccccc3)c12	K-562 leukemia	108% (inactive)
